Numbers sourced from ChEMBL document CHEMBL1132854.

# System: Human rhinovirus sp.
# TEST_DESCRIPTION: Compound was evaluated for in vitro effective concentration against HRV serotype-14 (HRV-14)
# Format: functional, organism-based
pEC50: −log10 of the molar value.
READOUT_LABEL: pEC50

compound=CC(C)C[C@H](NC(=O)OCc1ccccc1)C(=O)N[C@@H](Cc1ccccc1)C(=O)N[C@@H](CCC(N)=O)C(=O)c1nc2ccccc2s1 numeric_readout=4.77

I: CC(C)CC(NC(=O)OCc1ccccc1)C(=O)N[C@@H](Cc1ccccc1)C(=O)NC(CC1CCNC1=O)C(=O)c1nc2ccccc2s1 (stereo partly specified)
II: CC(C)C[C@H](NC(=O)OCc1ccccc1)C(=O)N[C@@H](Cc1ccccc1)C(=O)N[C@@H](C[C@@H]1CCNC1=O)C(=O)c1nccs1
III: Cc1cc(C(=O)N[C@H](C(=O)N[C@@H](Cc2ccc(F)cc2)C(=O)N[C@@H](C[C@@H]2CCNC2=O)C(=O)c2nc3ccccc3s2)C(C)C)no1
IN: Please list the entries, largest pEC50 first. The reply should contain the labels ordered as requested.
OUT: III, I, II
(III: 6.47, I: 5.49, II: 5.10)

----------
# System: Human rhinovirus sp.
# TEST_DESCRIPTION: Compound was evaluated for in vitro cytotoxic concentration against HRV serotype-14 (HRV-14)
# Format: functional
READOUT_LABEL: CC50 (µM)
Numbers only; they are read as µM.

compound="CC(C)C[C@H](NC(=O)OCc1ccccc1)C(=O)N[C@@H](Cc1ccccc1)C(=O)N[C@@H](CCC(N)=O)C(O)c1nc2ccccc2s1 (stereo not given in full)" target="Human rhinovirus sp." numeric_readout=80

IN: Which CC50 reading was recorded for the compound CC(C)C[C@H](NC(=O)OCc1ccccc1)C(=O)N[C@@H](Cc1ccccc1)C(=O)N[C@@H](C[C@@H]1CCNC1=O)C(=O)c1ccccn1 ?
OUT: 200

IN: What about this compound? Cc1cc(C(=O)N[C@H](C(=O)N[C@@H](Cc2ccc(F)cc2)C(=O)N[C@@H](C[C@@H]2CCNC2=O)C(=O)c2nc3ccccc3s2)C(C)C)no1
OUT: 250

IN: Lookup CC(=O)NC[C@H](NC(=O)[C@H](Cc1ccccc1)NC(=O)[C@H](CC(C)C)NC(=O)OCc1ccccc1)C(=O)c1nc2ccccc2s1
OUT: 25

IN: // query: CC(C)C[C@H](NC(=O)OCc1ccccc1)C(=O)N[C@@H](Cc1ccccc1)C(=O)N[C@@H](C[C@@H]1CCNC1=O)C(=O)c1nccs1
OUT: 240

IN: Request: CC(C)C[C@H](NC(=O)OCc1ccccc1)C(=O)N[C@@H](Cc1ccccc1)C(=O)N[C@@H](C[C@@H]1CCNC1=O)C(O)c1nc2ccccc2s1 (stereo not given in full)
OUT: 63

----------
# System: Human rhinovirus sp.
# TEST_DESCRIPTION: Compound was evaluated for the inhibition of human rhinovirus 3C protease (3CP)
# Assay type: functional, organism-based
Square brackets hold non-standard residues; d marks the D form. Peptide text beside a SMILES is read from it. * marks the point of attachment. Cbz = O=C(OCc1ccccc1)*; Dap = NC[C@H](N)C(=O)O
READOUT_LABEL: Ki (nM)
Numeric only. Scale: nM

IN: Suppose we examine the compound CC(=O)NC[C@@H](C=O)NC(=O)[C@H](Cc1ccccc1)NC(=O)[C@H](CC(C)C)NC(=O)OCc1ccccc1 (Cbz-Leu-Phe-[Dap](Ac)-aldehyde) ; what Ki value has been reported?
OUT: 6

IN: Also CC(C)C[C@H](NC(=O)OCc1ccccc1)C(=O)N[C@@H](Cc1ccccc1)C(=O)N[C@@H](C[C@@H]1CCNC1=O)C(=O)c1nccs1 ?
OUT: 700

IN: Same read-out for CC(C)CC(NC(=O)OCc1ccccc1)C(=O)N[C@@H](Cc1ccccc1)C(=O)NC(CC1CCNC1=O)C(=O)c1nc2ccccc2s1 (some centres not stated) ?
OUT: 65

----------
# System: Human rhinovirus sp.
# TEST_DESCRIPTION: Compound was evaluated for in vitro effective concentration against HRV serotype-14 (HRV-14)
# Assay type: functional, organism-based
Square brackets hold non-standard residues; d marks the D form. Peptide text beside a SMILES is read from it. * marks the point of attachment. Cbz = O=C(OCc1ccccc1)*; Dap = NC[C@H](N)C(=O)O
READOUT_LABEL: EC50 (µM)

a: CC(C)C[C@H](NC(=O)OCc1ccccc1)C(=O)N[C@@H](Cc1ccccc1)C(=O)N[C@@H](CCC(N)=O)C(O)c1nc2ccccc2s1 (stereo not given in full)
b: CC(C)C[C@H](NC(=O)OCc1ccccc1)C(=O)N[C@@H](Cc1ccccc1)C(=O)N[C@@H](C[C@@H]1CCNC1=O)C(=O)c1ccccn1
c: CC(=O)NC[C@@H](C=O)NC(=O)[C@H](Cc1ccccc1)NC(=O)[C@H](CC(C)C)NC(=O)OCc1ccccc1 (Cbz-Leu-Phe-[Dap](Ac)-aldehyde)
d: CC(C)C[C@H](NC(=O)OCc1ccccc1)C(=O)N[C@@H](Cc1ccccc1)C(=O)N[C@@H](C[C@@H]1CCNC1=O)C(O)c1nc2ccccc2s1 (stereo not given in full)
IN: Descending by EC50 please, for everything listed above. # list labels per requested ordering
OUT: a, d, b, c
(a: 32 µM, d: 7.9 µM, b: 4 µM, c: 2.4 µM)

----------
# Test system: Human rhinovirus sp.
# TEST_DESCRIPTION: Compound was evaluated for the inhibition of human rhinovirus 3C protease (3CP)
# Format: functional, organism-based
Quick reference for Ki among some compounds
Numbers only; they are read as nM.

Record excerpt, results attached:
smiles_repr=CC(C)C[C@H](NC(=O)OCc1ccccc1)C(=O)N[C@@H](Cc1ccccc1)C(=O)N[C@@H](CCC(N)=O)C(=O)c1nc2ccccc2s1 readout_label=Ki numeric_readout=3500
smiles_repr=CC(C)C[C@H](NC(=O)OCc1ccccc1)C(=O)N[C@@H](Cc1ccccc1)C(=O)N[C@@H](C[C@@H]1CCNC1=O)C(=O)c1ccccn1 readout_label=Ki numeric_readout=170

// switching to the query compound
IN: # query: Ki of entry Cc1cc(C(=O)N[C@H](C(=O)N[C@@H](Cc2ccc(F)cc2)C(=O)N[C@@H](C[C@@H]2CCNC2=O)C(=O)c2nc3ccccc3s2)C(C)C)no1
OUT: 4.5

----------
# Tested on: Human rhinovirus sp.
# TEST_DESCRIPTION: Compound was evaluated for in vitro cytotoxic concentration against HRV serotype-14 (HRV-14)
# Assay type: functional
READOUT_LABEL: CC50

Sample answers from the record:
molecule="CC(C)CC(NC(=O)OCc1ccccc1)C(=O)N[C@@H](Cc1ccccc1)C(=O)NC(CC1CCNC1=O)C(=O)c1nc2ccccc2s1 (some centres undefined)" result="> 320 µM"
molecule=CC(C)C[C@H](NC(=O)OCc1ccccc1)C(=O)N[C@@H](Cc1ccccc1)C(=O)N[C@@H](CCC(N)=O)C(=O)c1nc2ccccc2s1 result="> 100 µM"
molecule=CC(C)C[C@H](NC(=O)OCc1ccccc1)C(=O)N[C@@H](Cc1ccccc1)C(=O)N[C@@H](C[C@@H]1CCNC1=O)C(=O)c1ccccc1 result="> 10 µM"

Turning now to a further molecule:
IN: API: value(readout=CC50, system=Human rhinovirus sp.) for record CC(C)C[C@H](NC(=O)OCc1ccccc1)C(=O)N[C@@H](Cc1ccccc1)C(=O)N[C@@H](C[C@@H]1CCNC1=O)C(=O)c1cc2ccccc2s1
OUT: > 10 µM

----------
# Test system: Human rhinovirus sp.
# TEST_DESCRIPTION: Compound was evaluated for the inhibition of human rhinovirus 3C protease (3CP)
# Type: functional, organism-based
READOUT_LABEL: Ki (µM)
Please give a number only; it is taken to be in µM.

Some solved cases for reference:
compound=CC(C)C[C@H](NC(=O)OCc1ccccc1)C(=O)N[C@@H](Cc1ccccc1)C(=O)N[C@@H](C[C@@H]1CCNC1=O)C(=O)c1ccccc1 readout_label=Ki quantity_unit=µM numeric_readout=3.2
compound="CC(C)C[C@H](NC(=O)OCc1ccccc1)C(=O)N[C@@H](Cc1ccccc1)C(=O)N[C@@H](C[C@@H]1CCNC1=O)C(O)c1nc2ccccc2s1 (some centres undefined)" readout_label=Ki quantity_unit=µM numeric_readout=34
compound=CC(C)C[C@H](NC(=O)OCc1ccccc1)C(=O)N[C@@H](Cc1ccccc1)C(=O)N[C@@H](C[C@@H]1CCNC1=O)C(=O)c1cc2ccccc2s1 readout_label=Ki quantity_unit=µM numeric_readout=4.7

Let us move to another entry and its Ki.
IN: Dear colleague, I am looking for the recorded Ki of the following compound: CC(=O)NC[C@H](NC(=O)[C@H](Cc1ccccc1)NC(=O)[C@H](CC(C)C)NC(=O)OCc1ccccc1)C(=O)c1nc2ccccc2s1
OUT: 1.7
